B1: library; numbered along this chain (parent)
chain: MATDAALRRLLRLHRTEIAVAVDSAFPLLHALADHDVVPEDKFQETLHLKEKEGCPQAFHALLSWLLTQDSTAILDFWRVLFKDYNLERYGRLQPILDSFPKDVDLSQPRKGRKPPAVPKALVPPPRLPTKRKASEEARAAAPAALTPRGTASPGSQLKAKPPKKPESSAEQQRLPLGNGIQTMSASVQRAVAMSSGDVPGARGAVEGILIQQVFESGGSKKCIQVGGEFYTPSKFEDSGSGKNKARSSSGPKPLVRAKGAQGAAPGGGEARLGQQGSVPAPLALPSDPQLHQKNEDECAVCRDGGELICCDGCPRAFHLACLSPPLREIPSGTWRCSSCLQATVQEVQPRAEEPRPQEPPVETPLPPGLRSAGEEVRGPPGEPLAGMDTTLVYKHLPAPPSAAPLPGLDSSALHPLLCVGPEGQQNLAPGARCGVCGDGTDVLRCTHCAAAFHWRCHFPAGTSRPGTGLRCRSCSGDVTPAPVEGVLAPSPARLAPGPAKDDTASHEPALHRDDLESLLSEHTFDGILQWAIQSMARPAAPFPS

Variants of: B1
ASSAY_PROTOCOL: AIRE transcriptional activation functional score (insulin promoter-GFP; nonsense median 0, synonymous median 1) (normalised score); higher = higher AIRE activity (more reporter activation)
PROTOCOL_CONDITIONS: with insulin promoter-GFP reporter in HEK293
Assign a class from recorded AIRE transcriptional activation functional score; defined classes: low (below 0.6), medium (0.6 to below 1), high (1 or more)

SEQUENCE_CHANGE | CLASSIFICATION
C437N | low
P350A | high
A541F | medium
P365S | high
T480C | high
G438V | high
L122K | low
T46E | high
C223G | medium
G201R | medium
P254W | high
K83E | low
K245F | high
D105L | medium
D515T | low
A58M | low
F236W | high
P119W | high
S287K | low
C446G | low
Q293S | low
A5R | high
L49A | low
A265M | high
G260R | high
T46L | low
L488F | high
E88T | high
G267P | medium
E53L | high
P460H | high
H30E | low
A432G | high
Q276R | medium
C419Q | high
P365V | medium
A191K | low
M194Y | medium
L49N | low
L285G | low
A121D | medium
Y85L | low

Data provenance is the supplement of paper PMC12667976.
